# Tested target: T1, human NPR1 extracellular domain expressed with a C-terminal mouse IgG2a (hNPR1-mFc) (human)
# T1 construct: also called hNPR1-Fc; human NPR1 dimer
# T1 chain: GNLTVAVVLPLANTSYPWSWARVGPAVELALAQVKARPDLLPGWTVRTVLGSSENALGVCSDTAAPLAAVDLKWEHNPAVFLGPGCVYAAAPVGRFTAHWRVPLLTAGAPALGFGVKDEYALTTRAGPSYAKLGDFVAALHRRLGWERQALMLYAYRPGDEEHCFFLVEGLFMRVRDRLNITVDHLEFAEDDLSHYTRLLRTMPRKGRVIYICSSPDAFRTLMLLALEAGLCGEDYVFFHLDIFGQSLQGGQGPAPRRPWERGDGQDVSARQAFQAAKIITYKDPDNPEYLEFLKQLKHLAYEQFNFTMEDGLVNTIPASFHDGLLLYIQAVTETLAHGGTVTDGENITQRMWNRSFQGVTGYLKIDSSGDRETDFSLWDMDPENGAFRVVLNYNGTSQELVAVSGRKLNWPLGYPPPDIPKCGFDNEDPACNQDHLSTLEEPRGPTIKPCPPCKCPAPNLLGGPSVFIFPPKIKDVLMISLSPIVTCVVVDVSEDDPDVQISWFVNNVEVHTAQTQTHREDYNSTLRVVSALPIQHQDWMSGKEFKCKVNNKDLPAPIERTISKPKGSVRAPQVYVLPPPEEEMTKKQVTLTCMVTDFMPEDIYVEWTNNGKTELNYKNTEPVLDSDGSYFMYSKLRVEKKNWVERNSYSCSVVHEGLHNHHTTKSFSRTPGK
# Experiment description: SPR, mAb captured, 37 C
For each record, write down the corresponding koff.
Answer in s⁻¹, number only, no unit symbol.

input: Requested field: koff. Item: mAb25508 (antibody, V domains shown) VH: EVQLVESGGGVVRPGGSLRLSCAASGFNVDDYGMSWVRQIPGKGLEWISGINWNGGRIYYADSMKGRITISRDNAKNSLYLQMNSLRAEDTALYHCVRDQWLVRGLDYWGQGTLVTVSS VL: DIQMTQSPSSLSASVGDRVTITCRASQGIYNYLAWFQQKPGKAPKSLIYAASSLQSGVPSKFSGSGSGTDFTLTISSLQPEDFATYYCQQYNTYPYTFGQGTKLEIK
output: 0.000101

input: Requested field: koff. Item: mAb22033 (antibody, V domains shown) VH: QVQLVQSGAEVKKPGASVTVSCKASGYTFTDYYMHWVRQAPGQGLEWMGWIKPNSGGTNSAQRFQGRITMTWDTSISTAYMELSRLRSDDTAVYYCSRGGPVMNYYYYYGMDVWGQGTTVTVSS VL: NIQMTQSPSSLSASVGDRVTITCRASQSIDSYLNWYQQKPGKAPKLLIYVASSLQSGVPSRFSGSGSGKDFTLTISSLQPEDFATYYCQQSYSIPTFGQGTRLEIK
output: 0.000131

input: Requested field: koff. Item: mAb25491 (antibody, V domains shown) VH: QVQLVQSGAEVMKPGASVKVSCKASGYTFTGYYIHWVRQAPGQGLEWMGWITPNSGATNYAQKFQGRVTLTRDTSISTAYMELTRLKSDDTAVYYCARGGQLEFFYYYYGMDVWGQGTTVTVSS VL: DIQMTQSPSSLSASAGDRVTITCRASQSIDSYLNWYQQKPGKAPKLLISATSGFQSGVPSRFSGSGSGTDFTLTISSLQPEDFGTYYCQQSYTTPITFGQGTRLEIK
output: 0.000363
